target: TLR8 (Homo sapiens, UniProt Q9NR97); experiment: PBMC assay for TLR8 (TNFα in supernatants by ELISA); assay type: cell-based; parameters: Peripheral blood mononuclear cells (PBMCs) from human blood were isolated; endogenous in cells; host or cells: human PBMCs; settings: human PBMCs incubated with compound overnight, MC50 = concentration at which 50% of maximum induction is seen
Sequence (Q9NR97 27-1041): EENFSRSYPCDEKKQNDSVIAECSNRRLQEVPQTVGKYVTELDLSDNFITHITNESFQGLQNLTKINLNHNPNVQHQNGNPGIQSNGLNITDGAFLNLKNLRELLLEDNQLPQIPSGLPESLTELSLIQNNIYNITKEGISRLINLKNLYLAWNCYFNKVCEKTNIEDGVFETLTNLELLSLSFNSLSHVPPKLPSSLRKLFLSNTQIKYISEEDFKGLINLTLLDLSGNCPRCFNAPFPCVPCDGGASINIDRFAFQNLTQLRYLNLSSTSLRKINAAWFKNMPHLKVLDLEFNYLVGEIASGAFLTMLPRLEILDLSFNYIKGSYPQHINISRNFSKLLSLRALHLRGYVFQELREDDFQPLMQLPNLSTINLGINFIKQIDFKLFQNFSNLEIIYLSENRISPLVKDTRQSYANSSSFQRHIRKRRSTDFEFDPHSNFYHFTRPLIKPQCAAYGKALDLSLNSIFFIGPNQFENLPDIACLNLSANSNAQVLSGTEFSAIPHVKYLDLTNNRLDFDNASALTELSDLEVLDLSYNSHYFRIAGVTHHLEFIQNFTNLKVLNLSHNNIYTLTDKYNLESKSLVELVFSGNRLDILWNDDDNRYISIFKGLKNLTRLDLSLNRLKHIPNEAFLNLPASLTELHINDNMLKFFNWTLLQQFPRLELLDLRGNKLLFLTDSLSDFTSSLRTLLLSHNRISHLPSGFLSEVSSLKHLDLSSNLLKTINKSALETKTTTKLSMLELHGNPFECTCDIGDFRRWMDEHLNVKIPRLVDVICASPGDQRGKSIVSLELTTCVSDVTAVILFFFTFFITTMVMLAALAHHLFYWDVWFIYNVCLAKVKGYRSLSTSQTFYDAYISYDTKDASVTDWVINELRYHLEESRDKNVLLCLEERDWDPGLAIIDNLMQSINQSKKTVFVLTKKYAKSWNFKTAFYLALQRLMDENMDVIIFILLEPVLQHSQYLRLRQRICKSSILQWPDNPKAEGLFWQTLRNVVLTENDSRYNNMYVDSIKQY
pEC50: −log10 of the molar value.
observationType: pEC50

Inquiry: Would you kindly share the measured pEC50 for CCOC(=O)C1=Cc2ccc(OCc3ccccc3)cc2N=C(N)C1 ?
Reply text: 6.00 to 7.00

----------
Molecular target: TLR7 (Homo sapiens, UniProt Q9NYK1)
Sequence (Q9NYK1 27-1049): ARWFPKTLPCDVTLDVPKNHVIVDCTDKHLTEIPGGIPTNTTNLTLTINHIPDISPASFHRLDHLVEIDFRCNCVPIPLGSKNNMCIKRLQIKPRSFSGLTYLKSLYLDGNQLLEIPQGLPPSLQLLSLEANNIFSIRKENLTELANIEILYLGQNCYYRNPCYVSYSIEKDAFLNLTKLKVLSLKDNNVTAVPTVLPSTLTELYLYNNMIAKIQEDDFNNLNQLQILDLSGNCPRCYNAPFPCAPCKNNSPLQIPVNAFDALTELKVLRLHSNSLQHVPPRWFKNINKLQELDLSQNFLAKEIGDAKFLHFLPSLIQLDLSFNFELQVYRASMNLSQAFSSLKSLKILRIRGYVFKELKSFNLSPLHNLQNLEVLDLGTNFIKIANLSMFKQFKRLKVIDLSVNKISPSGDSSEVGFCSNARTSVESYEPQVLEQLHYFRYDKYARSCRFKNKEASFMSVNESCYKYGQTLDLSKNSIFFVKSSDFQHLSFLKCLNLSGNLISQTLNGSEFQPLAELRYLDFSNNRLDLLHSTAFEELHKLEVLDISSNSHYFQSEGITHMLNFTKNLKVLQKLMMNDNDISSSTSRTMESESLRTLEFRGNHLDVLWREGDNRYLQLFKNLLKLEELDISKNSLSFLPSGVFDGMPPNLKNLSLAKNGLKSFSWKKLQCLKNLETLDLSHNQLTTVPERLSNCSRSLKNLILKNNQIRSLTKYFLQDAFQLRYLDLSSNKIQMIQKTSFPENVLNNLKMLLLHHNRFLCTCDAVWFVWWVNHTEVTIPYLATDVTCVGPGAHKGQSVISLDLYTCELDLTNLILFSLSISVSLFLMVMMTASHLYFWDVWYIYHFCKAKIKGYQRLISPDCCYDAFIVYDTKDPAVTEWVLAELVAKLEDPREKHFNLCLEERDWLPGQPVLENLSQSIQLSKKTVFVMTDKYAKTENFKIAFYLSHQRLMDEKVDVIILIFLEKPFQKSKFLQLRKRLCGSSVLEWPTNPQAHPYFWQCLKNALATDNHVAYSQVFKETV
Experiment: PBMC assay for TLR7 (IFNα in supernatants by ELISA)
Assay type: cell-based
Set-up: Peripheral blood mononuclear cells (PBMCs) from human blood were isolated; endogenous in cells; host or cells: human PBMCs
Conditions: human PBMCs incubated with compound overnight, MC50 = concentration at which 50% of maximum induction is seen
observationType: EC50

// below: answered molecules
{"molecule": "CCCN(CCC)C(=O)C1=Cc2ccc(-c3cncc(CO)c3)cc2N=C(N)C1 [Compound 183]", "experimentalSystem": "TLR7 (Homo sapiens, UniProt Q9NYK1)", "observationType": "EC50", "result": "1 to 10 µM"}
{"molecule": "CCCN(CCC)C(=O)C1=Cc2ccc(-c3ccc(C4COC(=O)O4)cc3)cc2N=C(N)C1 (centres unmarked) [Compound 225]", "experimentalSystem": "TLR7 (Homo sapiens, UniProt Q9NYK1)", "observationType": "EC50", "result": "10 to 100 µM"}
{"molecule": "CCOC(=O)C1=Cc2ccc(-c3cncc(CO)c3)cc2N=C(N)C1 [Compound 199]", "experimentalSystem": "TLR7 (Homo sapiens, UniProt Q9NYK1)", "observationType": "EC50", "result": "1 to 10 µM"}

Inquiry: Entry NC1=Nc2cc(-c3ccc(C(=O)N4CCCC4)cc3)ccc2C=C(C(=O)NOCc2ccccc2)C1 [Compound 116] : reported EC50 = ?
Reply text: 10 to 100 µM

Inquiry: Given CCCN(CCC)C(=O)C1=Cc2ccc(CCCN3CCOCC3)cc2N=C(N)C1 [Compound 184] , state its recorded EC50.
Reply text: 1 to 10 µM

Inquiry: EC50 for CCCN(CCCO)C(=O)C1=Cc2ccc(-c3ccc(CC(=O)OCC(C)C)cc3)cc2N=C(N)C1 [Compound 216] ?
Reply text: 10 to 100 µM

Inquiry: Param item = CCCN(CCC)C(=O)C1=Cc2ccc(-c3ccc(CCC(=O)OCC)cc3)cc2N=C(N)C1 [Compound 193] ; retrieve measured EC50.
Reply text: 1 to 10 µM

Inquiry: What value of measured EC50 is listed for CCCN(CCCO)C(=O)C1=Cc2ccc(-c3ccc(CC(=O)OC(C)C)cc3)cc2N=C(N)C1 [Compound 215] ?
Reply text: 10 to 100 µM

Reference source for all entries: patent US9655904B2
